All figures here come from PubChem BioAssay.

experiment-summary: inhibitors of TNFa-induced NFkB p65 translocation, primary screen, imaging, HUVEC, MLSMR starter and 10KST1 sets (AID 438);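 further: compound added about 3h40 before a 20 min TNFalpha stimulation; signal is the nuclear over cytoplasmic p65 intensity ratio per well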
recorded-conditions: HUVEC TNFa-induced p65 nuclear translocation; at 2 µM, active compounds read high, 0% TNFa-plus-vehicle, 100% no-TNFa wells
property-label: inhibition (%)

> print(dat)
                                    compound  recorded.number
 1  O=C(CN1CCN(C2CCCCC2)CC1)Nc1ccccc1-c1ccccc1             18.4
 2  COc1cc(C(Nc2ccc3c(c2)OCO3)C(=O)NC2CCCCC2)cc(OC)c1OC (stereo unspecified)            -10.7
 3  Cc1ccc(NC(=O)CSc2nnc(-c3ccc(S(=O)(=O)N4CCOCC4)cc3)n2C)cc1             -0.2
 4  CC(n1cnnn1)C12CC3CC(CC(C3)C1)C2 (stereo unspecified)              1.3
 5  O=C(Nc1ccccc1C(=O)NCC1CCCO1)c1ccco1 (stereo unspecified)               -8
 6  O=C1c2ccccc2C(Nc2ccc3c(c2)OCCO3)N1Cc1ccco1 (stereo unspecified)               -2
 7  CN(C)C(CNc1nnnn1-c1ccccc1)c1ccco1 (stereo unspecified)             -7.3
 8                Cc1cc(Nc2ccccc2)n(CCC#N)n1              1.6
 9  CC(NC(=O)c1ccco1)c1ccc2c(c1)OCCO2 (stereo unspecified)              9.3
10    CCC(=O)Oc1ccc(C/C(=N\O)c2ccc(O)cc2O)o1              1.5
11                     CSc1nnc(-c2ccccc2)n1C            -13.1
